- Tested on: S. aureus ATCC25923
- method: Antimicrobial broth micro-dilution assay (MIC)
- Format: cell-based
- measurement_setup: Staphylococcus aureus; S. aureus ATCC25923; 24 h at 37 °C; highest tested concentration 250 µg/mL; read-out: Minimum inhibitory concentration (MIC)
endpoint: MIC (µg/mL)
Number in µg/mL, nothing else.

Consider the reported MIC for these compounds:
Noted for CC1=C(O)C(=O)C(C)=C(C(=O)OCc2ccccc2)C1=O : its MIC reads 31.2

Noted for CCOC(=O)C1=C(C)C(=O)C(O)=C(C)C1=O : its MIC reads 62.5

Noted for CCCCCOC(=O)C1=C(C)C(=O)C(O)=C(C)C1=O : its MIC reads 15.6

Noted for CC1=C(O)C(=O)C(C)=C(C(=O)OCCC(C)C)C1=O : its MIC reads 15.6

Noted for CC1=C(O)C(=O)C(C)=C(C(=O)OCC(C)C)C1=O : its MIC reads 31.2

Noted for CC1=C(O)C(=O)C(C)=C(C(=O)OCCCC(C)C)C1=O : its MIC reads 15.6

Noted for CCCCCCOC(=O)C1=C(C)C(=O)C(O)=C(C)C1=O : its MIC reads 31.2

Noted for C/C=C/C=C/C(=O)C1=C(C)C(=O)C(O)=C(C)C1=O : its MIC reads 62.5

For the next question, use this compound.
Noted for C=CCCOC(=O)C1=C(C)C(=O)C(O)=C(C)C1=O : its MIC reads 62.5
